Molecular target: PI5P4KβF205L (Homo sapiens, UniProt P78356, F205L)
Sequence (P78356 1-416 F205L): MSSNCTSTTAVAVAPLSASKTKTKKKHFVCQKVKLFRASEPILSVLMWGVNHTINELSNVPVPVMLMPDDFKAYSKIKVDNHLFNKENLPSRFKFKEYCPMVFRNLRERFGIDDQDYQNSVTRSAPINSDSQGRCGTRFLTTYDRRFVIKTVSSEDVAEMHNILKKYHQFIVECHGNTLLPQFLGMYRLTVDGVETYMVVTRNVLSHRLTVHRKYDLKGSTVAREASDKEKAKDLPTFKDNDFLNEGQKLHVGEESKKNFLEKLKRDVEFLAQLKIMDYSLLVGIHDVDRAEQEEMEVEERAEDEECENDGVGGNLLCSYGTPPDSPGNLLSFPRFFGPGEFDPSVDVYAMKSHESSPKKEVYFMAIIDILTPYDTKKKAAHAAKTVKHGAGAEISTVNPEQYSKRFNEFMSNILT
Assay: PNT hydrolysis activity of mutant PI5P4Kβ
Assay type: biochemical

Molecule: Nc1nc(=S)c2ncn([C@@H]3O[C@H](COP(=O)(O)OP(=O)(O)OP(=O)(O)O)[C@H](O)C3O)c2[nH]1 (stereo partly drawn)
hydrolysis activity compared to WT: less active
//
Molecule: Nc1ncnc2c1ncn2[C@@H]1O[C@H](COP(=O)(O)OP(=O)(O)OP(=O)(O)O)[C@@H](O)[C@H]1O
hydrolysis activity compared to WT: not affected
//
Molecule: Nc1nc2c(ncn2[C@@H]2O[C@H](COP(=O)(O)OP(=O)(O)OP(=O)(O)O)[C@@H](O)[C@H]2O)c(=O)[nH]1 [GTP, guanosine triphosphate]
hydrolysis activity compared to WT: less active
//
Molecule: O=P(O)(O)OP(=O)(O)OP(=O)(O)OC[C@H]1O[C@@H](n2cnc3c(O)ncnc32)[C@H](O)[C@@H]1O [ITP, inosine triphosphate]
hydrolysis activity compared to WT: less active
//
Molecule: Nc1nc(N)c2ncn([C@@H]3O[C@H](COP(=O)(O)OP(=O)(O)OP(=O)(O)O)[C@@H](O)[C@H]3O)c2n1
hydrolysis activity compared to WT: not affected
